Taken from ChEMBL document CHEMBL3046774.

- Tested on: Aphididae
- ASSAY METHOD TEXT: Antifeeding activity against Aphididae (aphids) in compound treated chinese cabbage leaves assessed as settled aphids measured up to 24 hr
- Format: functional, organism-based
The source made the active and inactive calls. The calls are words filed in the database; no cut-off is given here.
METRIC NAME: Activity

> print(dat)
                                   compound  metric.name  measured
1        COc1ccc2c(c1)OC(C)(C)C1=C2OC(=O)C1     Activity    Active
2        COc1ccc2c(c1)OC(C)(C)C(CC(=O)O)=C2     Activity  inactive
3  COc1ccc2c(c1)OC(C)(C)[C@@]1(I)CC(=O)O[C@@H]21 (racemic)     Activity  inactive
4  COc1cc2c(cc1OC)[C@@H]1OC(=O)C[C@]1(I)C(C)(C)O2 (racemic)     Activity  inactive
5  COc1cc2c(cc1OC)OC(C)(C)C=C2 [PROCOCENE II]     Activity    Active
6      COc1cc2c(cc1OC)OC(C)(C)C(CC(=O)O)=C2     Activity  inactive
7    COc1cc2c(cc1OC)C1=C(CC(=O)O1)C(C)(C)O2     Activity  inactive
8   COc1ccc2c(c1)OC(C)(C)C=C2 [PROCOCENE I]     Activity    Active
